Below: a set of entries, each annotated with reported IC50.
target: recombinant human IL-17AA (Homo sapiens); assay: IL-6 release from NHDF cells, IL-17AA plus TNF-α stimulation; assay type: cell-based; settings: NHDF cells, IL-17AA 30 pM plus TNF-α 6 pM, 24 hours, IL-6 by ELISA; read-out: IL17AA + TNF IC50 IL-6
Sequence (Q16552 24-155): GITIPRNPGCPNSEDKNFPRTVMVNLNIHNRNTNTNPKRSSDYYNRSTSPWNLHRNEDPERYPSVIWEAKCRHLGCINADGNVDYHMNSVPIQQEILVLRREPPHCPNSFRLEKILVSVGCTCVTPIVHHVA
Report only the number, with the unit nM understood.

- molecule: "Cc1c(-c2ccc(NC(=O)[C@@H](NC(=O)c3ccnn3C(C)C)C3CCCCCC3)cc2)c(Cl)cc[n+]1[O-] [Example 48]"
  u: "nM"
  IC50: 1

input: Read off the recorded IC50 for Cc1cc[n+]([O-])c(C)c1-c1ccc(NC(=O)[C@@H](NC(=O)c2ccnn2C(C)C)[C@H]2CCCc3ccccc32)cc1 [Example 50]
output: 1

input: Read off the recorded IC50 for Cc1cc[n+]([O-])c(C)c1-c1ccc(NC(=O)[C@H](Cc2ccccc2Cl)NC(=O)c2ccc3n2CCN(C)C3)cc1 [Example 130]
output: 956
